B1: Chromodomain-helicase-DNA-binding protein 4, residues 444 to 496; numbered along this chain, Q14839 (parent)
chain: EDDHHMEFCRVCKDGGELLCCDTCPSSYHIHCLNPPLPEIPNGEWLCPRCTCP

Variants of: B1
ASSAY NAME: abundance fitness (aPCA) (normalised: wild type 0, dead -1); higher = more abundant; growth selection in yeast, the domain comes from the species named
STUDY CONDITIONS: Homo sapiens

{"columns": ["VARIANT IDENTIFIER", "abundance fitness"],
 "data": [
  ["K13S", -0.101],
  ["L33M", -0.326],
  ["C9R", -0.571],
  ["V11Q", -0.037],
  ["C50E", -0.708],
  ["P41K", -0.118],
  ["H31N", 0.106],
  ["C47Q", -0.627],
  ["P35I", -0.432],
  ["G43I", -0.144],
  ["E7G", -0.239],
  ["Y28M", -0.656],
  ["P35G", -0.289],
  ["P25S", -0.1],
  ["E17W", -0.576],
  ["T51D", 0.152],
  ["R10H", -0.137],
  ["I40W", -0.041],
  ["D3K", 0.304],
  ["N42I", -0.096],
  ["I40H", 0.017],
  ["S26A", 0.104]
]}
